Attribution: paper PMC7265341

target: CDK11A/Cyclin L2 (Homo sapiens); experiment: NanoBRET live-cell target engagement, CDK11A-NanoLuc/Cyclin L2 in HEK-293; type: binding; conditions: CDK11a/L2; average; read-out: Inhibition at 10µM (%)
Sequence (Q9UQ88 whole entry): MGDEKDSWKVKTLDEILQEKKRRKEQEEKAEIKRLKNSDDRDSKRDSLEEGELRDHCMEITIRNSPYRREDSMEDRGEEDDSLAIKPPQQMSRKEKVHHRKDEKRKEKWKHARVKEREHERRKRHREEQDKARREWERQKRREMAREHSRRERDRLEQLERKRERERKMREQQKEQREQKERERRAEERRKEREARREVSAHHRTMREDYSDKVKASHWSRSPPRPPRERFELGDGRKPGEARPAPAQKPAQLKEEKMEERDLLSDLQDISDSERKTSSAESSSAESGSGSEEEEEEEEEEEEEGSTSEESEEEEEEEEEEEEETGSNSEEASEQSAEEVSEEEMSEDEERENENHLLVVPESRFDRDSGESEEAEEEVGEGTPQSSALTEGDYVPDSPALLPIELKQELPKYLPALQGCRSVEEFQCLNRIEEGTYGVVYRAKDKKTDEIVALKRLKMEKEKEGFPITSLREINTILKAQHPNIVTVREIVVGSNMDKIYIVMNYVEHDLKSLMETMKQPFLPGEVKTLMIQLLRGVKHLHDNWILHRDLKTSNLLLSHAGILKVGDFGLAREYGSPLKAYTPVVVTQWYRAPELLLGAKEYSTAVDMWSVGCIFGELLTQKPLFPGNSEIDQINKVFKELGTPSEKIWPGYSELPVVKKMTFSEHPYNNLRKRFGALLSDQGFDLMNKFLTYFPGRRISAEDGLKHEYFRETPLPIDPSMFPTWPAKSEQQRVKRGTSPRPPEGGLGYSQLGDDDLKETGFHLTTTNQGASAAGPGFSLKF
Reported inhibition at 10 µM values for a set of compounds
Lab book: enter the figure in %, no units written.

compound	recorded_measurement
CC(C)c1cnn2c(NCc3ccccc3)cc(NC[C@H]3CCNC[C@@H]3O)nc12	43.5
Cn1cc(-c2ccc(-c3cncc(Cl)c3N3CCC4(CCNC4=O)CC3)cc2)cn1	4.8
CN1CCN(Cc2ccc(NC(=O)Nc3ccc(Oc4ccnc(N)n4)cc3)cc2C(F)(F)F)CC1	14.5
CCc1cnn2c(NCc3ccc[n+]([O-])c3)cc(N3CCCC[C@H]3CCO)nc12	33
CN1CC[C@H](c2c(O)cc(O)c3c(=O)cc(-c4ccccc4Cl)oc23)[C@H](O)C1	27.7
COc1ccc(F)cc1-c1cc(NC(=O)C2CCCNC2)ncc1Cl (stereo not drawn)	95.4
NS(=O)(=O)c1ccc(Nc2nc(OCC3CCCCC3)c3nc[nH]c3n2)cc1	14
N#CCNC(=O)c1ccc(-c2ccnc(Nc3ccc(N4CCOCC4)cc3)n2)cc1	26.4
CC(C)(C)c1nc(-c2cccc(NS(=O)(=O)c3c(F)cccc3F)c2F)c(-c2ccnc(N)n2)s1	9.5
CN1CCN(c2ccc(Nc3ncc4cc(C#N)c(=O)n(C5CCCC5)c4n3)cc2)CC1	12.6

Q) Form field: reported inhibition at 10 µM of CNC(=O)c1nn(C)c2c1C(C)(C)Cc1cnc(Nc3ccc(N4CCN(C)CC4)cc3)nc1-2
A) 22.7

Q) Report inhibition at 10 µM for CC(C)N1CCN(c2ccc(Nc3ncc4cc5n(c4n3)C3(CCCCC3)CNC5=O)nc2)CC1 please.
A) 7.4
